Experiment: Chemical stability of the compound in aqueous buffer at pH 2 assessed as decomposition at 5 mM up to 2 hrs by RP-HPLC
Assay type: physicochemical
Settings: pH 2, 2 h, 5000 µM
parameter: Drug degradation

{"columns": ["compound", "parameter", "measured"],
 "data": [
  ["CO[C@@H]1[C@H](O)[C@@H](COP(=O)([O-])NP(=O)([O-])OP(=O)([O-])OC[C@H]2O[C@@H](n3cnc4c(=O)[nH]c(N)nc43)[C@H](O)[C@@H]2O)O[C@H]1n1c[n+](C)c2c(=O)[nH]c(N)nc21.[Na+].[Na+]", "Drug degradation", "Not Active"],
  ["C[n+]1cn([C@@H]2O[C@H](COP(=O)([O-])OP(=O)(O)OP(=O)(O)NP(=O)(O)OC[C@H]3O[C@@H](n4cnc5c(=O)[nH]c(N)nc54)[C@H](O)[C@@H]3O)[C@@H](O)[C@H]2O)c2nc(N)[nH]c(=O)c21.N.N.N", "Drug degradation", "Not Active"],
  ["C[n+]1cn([C@@H]2O[C@H](COP(=O)([O-])NP(=O)([O-])OP(=O)([O-])OP(=O)([O-])OC[C@H]3O[C@@H](n4cnc5c(=O)[nH]c(N)nc54)[C@H](O)[C@@H]3O)[C@@H](O)[C@H]2O)c2nc(N)[nH]c(=O)c21.[Na+].[Na+].[Na+]", "Drug degradation", "Not Active"],
  ["C[n+]1cn([C@@H]2O[C@H](COP(=O)([O-])OP(=O)([O-])NP(=O)([O-])OC[C@H]3O[C@@H](n4cnc5c(=O)[nH]c(N)nc54)[C@H](O)[C@@H]3O)[C@@H](O)[C@H]2O)c2nc(N)[nH]c(=O)c21.[Na+].[Na+]", "Drug degradation", "Not Active"]
]}

Origin of values: ChEMBL document CHEMBL1949618
